# procedure summary: Half life in Wistar rat brain at 0.5 mM by RP-HPLC analysis
# Format: ADME, tissue-based
Where a SMILES comes first, the peptide text is derived from it.
Give measured half-life at 500 µM for each item. Keep answers brief.
Give bare numbers, in h.

compound: NC(=O)[C@H](Cc1ccccc1)NC(=O)[C@H](Cc1ccccc1)NC(=O)[C@@H]1CCCN1C(=O)[C@@H](N)Cc1ccc(O)cc1 [ENDOMORPHIN 2]
endpoint unit: h
half-life at 500 µM: 0.238

Hello, I would appreciate it if you could give half-life at 500 µM for each entry below.
1. NC(=O)[C@@H]1CC(=O)NCCCC[C@@H](NC(=O)[C@@H](N)Cc2ccc(O)cc2)C(=O)N[C@@H](Cc2ccccc2)C(=O)N2CCC[C@@H]2C(=O)N1
2. NC(=O)[C@@H]1CCCN1C(=O)[C@H](Cc1ccccc1)NC(=O)[C@@H]1CCCN1C(=O)[C@@H](N)Cc1ccc(O)cc1 [MORPHICEPTIN] (H-YPFP-NH2)

## Result
[1.95, 0.278]

## Task half-life at 500 µM for NC(=O)[C@@H]1CCCCNC(=O)C[C@@H](NC(=O)[C@@H](N)Cc2ccc(O)cc2)C(=O)N[C@@H](Cc2ccccc2)C(=O)N2CCC[C@@H]2C(=O)N1 ?
## Result 1.05

----------
# procedure summary: Half life in Wistar rat brain at 0.5 mM by RP-HPLC analysis
# Assay type: ADME, tissue-based
Where a SMILES comes first, the peptide text is derived from it. Bridges are numbered along the chain shown (N, C = ends). [ ]: non-standard residue; d: D form.
experimental readout: half-life at 500 µM

Look at each molecule and report its half-life at 500 µM.
1. NC(=O)[C@@H]1CC(=O)NCCCC[C@@H](NC(=O)[C@@H](N)Cc2ccc(O)cc2)C(=O)N[C@@H](Cc2ccccc2)C(=O)N[C@@H](Cc2ccccc2)C(=O)N1 (H-Y[dK]FFD-NH2; lactam 2-5)
2. Cc1cc(O)cc(C)c1C[C@H](N)C(=O)N[C@@H]1CCCCNC(=O)C[C@@H](C(N)=O)NC(=O)[C@H]2CCCN2C(=O)[C@H](Cc2ccccc2)NC1=O
3. Cc1cc(O)cc(C)c1C[C@H](N)C(=O)N[C@@H]1CC(=O)NCCCC[C@@H](C(N)=O)NC(=O)[C@H]2CCCN2C(=O)[C@H](Cc2ccccc2)NC1=O

## Result
1: 6.05 h; 2: > 16.7 h; 3: 10.4 h

----------
# system tested: Delta-type opioid receptor (Rattus norvegicus)
# Sequence (P33533 whole entry): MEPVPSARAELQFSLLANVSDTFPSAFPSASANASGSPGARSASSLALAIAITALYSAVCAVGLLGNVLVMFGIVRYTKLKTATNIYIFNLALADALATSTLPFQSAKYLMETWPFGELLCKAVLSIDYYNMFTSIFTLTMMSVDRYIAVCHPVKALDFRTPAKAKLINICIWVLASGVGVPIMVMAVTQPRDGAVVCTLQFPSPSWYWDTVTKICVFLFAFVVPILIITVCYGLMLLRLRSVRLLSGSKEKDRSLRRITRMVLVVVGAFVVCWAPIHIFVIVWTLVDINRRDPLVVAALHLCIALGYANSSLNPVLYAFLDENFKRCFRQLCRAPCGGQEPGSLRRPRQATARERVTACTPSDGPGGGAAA
# procedure summary: Displacement of [3H][Ile5,6]deltorphin 2 from delta opioid receptor in Wistar rat brain membrane by liquid scintillation counting
Where a SMILES comes first, the peptide text is derived from it. Bridges are numbered along the chain shown (N, C = ends). [ ]: non-standard residue; d: D form. Dmt = Cc1cc(O)cc(C)c1C[C@H](N)C(=O)O
experimental readout: log10(IC50) (log10 of the value in nM)
// units: nM (pre-log); metric: IC50; scale: log10

Here are 4 molecules together with their reported answers.
molecule: Cc1cc(O)cc(C)c1C[C@H](N)C(=O)N[C@@H]1CC(=O)NCCCC[C@@H](C(N)=O)NC(=O)[C@H]2CCCN2C(=O)[C@H](Cc2ccccc2)NC1=O
system tested: Delta-type opioid receptor (Rattus norvegicus)
number: 1.77
--
molecule: Cc1cc(O)cc(C)c1C[C@H](N)C(=O)N[C@@H]1CCCCNC(=O)C[C@@H](C(N)=O)NC(=O)[C@H]2CCCN2C(=O)[C@H](Cc2ccccc2)NC1=O
system tested: Delta-type opioid receptor (Rattus norvegicus)
number: 2.12
--
molecule: NC(=O)[C@@H]1CC(=O)NCCCC[C@@H](NC(=O)[C@@H](N)Cc2ccc(O)cc2)C(=O)N[C@@H](Cc2ccccc2)C(=O)N[C@@H](Cc2ccccc2)C(=O)N1 (H-Y[dK]FFD-NH2; lactam 2-5)
system tested: Delta-type opioid receptor (Rattus norvegicus)
number: 2.45
--
molecule: Cc1cc(O)cc(C)c1C[C@H](N)C(=O)N[C@@H]1CCCCNC(=O)C[C@@H](C(N)=O)NC(=O)[C@H](Cc2ccccc2)NC(=O)[C@H](Cc2ccccc2)NC1=O (H-[Dmt][dK]FFD-NH2; lactam 2-5)
system tested: Delta-type opioid receptor (Rattus norvegicus)
number: 2.60

## Task Which log10(IC50) is reported with Delta-type opioid receptor (Rattus norvegicus) for this entry: CC(C)[C@H](NC(=O)[C@H](CCC(=O)O)NC(=O)[C@H](Cc1ccccc1)NC(=O)[C@H](C)NC(=O)[C@@H](N)Cc1ccc(O)cc1)C(=O)N[C@H](C(=O)NCC(=O)O)C(C)C ?
## Result -1.10
